Reported growth values for a set of compounds
Test system: T-47D breast
measurement.description: NCI-60 one-dose screen, 48 h (100 = growth as untreated, 0 = no growth, -100 = all killed)
experimental.context: 10 µM unless noted
About 83,000 compounds went through this panel and 20% of them were active in at least one assay; those are over-represented in the sample as a whole.

>  <compound>
C=C1CC[C@@H]2[C@](C)(COC(C)=O)[C@H](OC(C)=O)CC[C@@]2(C)[C@@H]1CC(Nc1ccc(S(=O)(=O)Nc2nccs2)cc1)C1=CCOC1=O (some centres undefined)

>  <experimental.target>
T-47D breast

>  <growth (%)>
34.6

$$$$
>  <compound>
Clc1ccc2c(c1)N(c1ncnc3ccc(-c4cnc5[nH]ccc5c4)cc13)CC2

>  <experimental.target>
T-47D breast

>  <growth (%)>
-15

$$$$
>  <compound>
Cc1ccc(-c2nc3nc(-c4ccc(Cl)cc4)nc(N4CCCNCC4)c3o2)cc1

>  <experimental.target>
T-47D breast

>  <growth (%)>
-36.5

$$$$
>  <compound>
O=C(CCCCCCCCC(=O)N/N=C\c1ccccc1O)N/N=C\c1ccccc1O

>  <experimental.target>
T-47D breast

>  <growth (%)>
18.1

$$$$
